- System: COLO 205
- Protocol description: NCI tumour cell line growth inhibition, 48 h
Activity calls are given as the source filed them. Rule as the data show it: active = GI50 up to about 1.1 µM and inactive = higher. Square brackets hold non-standard residues; d marks the D form. Peptide text beside a SMILES is read from it. * marks the point of attachment. Boc = CC(C)(C)OC(=O)*; Lac = C[CH](O)C(=O)O; OBn = c1ccc(CO*)cc1
Assign a class; possible classes are active, inactive

So what was the verdict on Cc1c(C(=O)O)sc2nc[nH]c(=O)c12 in this test?
inactive

Now give it for Cc1ccc(OCC2OC(n3cnc4c(Cl)nc(N)nc43)CC2Oc2ccc(C)cc2)cc1 (stereo not given) too.
inactive

Same lookup for CC12CCC(CC1=O)C2(C)CCC(N)=O (stereo not given) , please.
inactive

// next record N#Cc1c2ccc([N+](=O)[O-])cc2c(=O)n2c1sc1ccc(C(F)(F)F)cc12
inactive

Quick one: CCOC(=O)C(C(=O)OCC)=C1SC(=N\c2ccccc2)/C(=N/c2ccccc2)N1c1ccccc1
inactive

Then this compound: Cc1c2cc[n+](C)cc2c(C)c2c1[nH]c1ccc(OCC(F)(F)F)cc12
active

// repeat for CCO[C@@]1(COCc2ccccc2)OC(=O)C[C@@H]1N1C(=O)OC[C@@H]1c1ccccc1 and report
inactive

Note, next up: Cc1ccc(C(=O)O/N=C2/CCCC/C2=C\c2ccccc2)cc1
inactive

Same lookup for CC(OC(=O)C(Cc1ccccc1)NC(=O)C(Cc1ccccc1)NC(=O)OC(C)(C)C)C(=O)OCc1ccccc1 (stereo not drawn) (Boc-Phe-Phe-[Lac]-OBn; configuration not given here) , please.
inactive

Thanks! And NC(Cc1cc(Br)c(O)c(Br)c1)C(=O)O (stereo not given) ?
inactive

Again, but for COC(=O)[C@@H]1C=C[C@H](OC2OC(COC(C)=O)C(OC(C)=O)C(OC(C)=O)C2OC(C)=O)n2c(=O)n(-c3ccccc3)c(=O)n21 (stereo not given in full)
inactive

Another: COc1ccc(-c2nc(SCC(=O)N/N=C/c3ccc(N(C)C)cc3)[nH]c2-c2ccc(OC)cc2)cc1
inactive

Same again, this time with Cc1cc2c(c(/C=N/c3ccc(N(C)C)cc3)c1)OC1(C=C2)Oc2ccccc2C(=O)N1C (stereo not given)
inactive

Item: COC(=O)CC(C(C(=O)OC)C(=O)OC)N1C(=O)OCC1c1ccccc1 (stereo not given)
inactive

Subsequent entry: CCCCCCCC(=O)OCC1OC(OC)C(NC(=O)N(CCCl)N=O)C(O)C1O (stereo not given)
inactive

Can you handle COc1cc2c(cc1C)[n+]([O-])c(C)c(C(=O)C/C(=N/NC(=O)C[N+](C)(C)C)C(=O)Nc1cccc(Cl)c1C)[n+]2[O-] next?
inactive

Please give the result for CC1CC(N)=Nc2ccccc2N1Cc1ccccc1 (stereo not given) too.
inactive

Please give the result for CCOC(=O)/C=C/CC(C)(C)CCOC(C)=O too.
inactive

Queued: COc1ccc2oc(C(=O)N3CC(CCl)c4ccc(N)cc43)cc2c1 (stereo not given)
active

Entry C[N+](C)(C)CC(=O)NC(=O)N/N=C\C(CC#N)CN(Cc1ccccc1)Cc1ccccc1 (stereo not given) please
inactive

Entry Cc1cc(N(C)C)c2ccccc2[n+]1CCCCCCCCCC[n+]1c(C)cc(N(C)C)c2ccccc21.[O-][Cl+3]([O-])([O-])[O-].[O-][Cl+3]([O-])([O-])[O-] please
active

Same lookup for Nc1ccccc1C(=O)/C=C/c1c(O)ccc2ccccc12 , please.
inactive

Moving on to COc1c(Cl)c(Cl)c(OC)c2c1C(=O)C=CC2=O
inactive

O=C(C(=O)n1ncc(Cl)c(Cl)c1=O)n1ncc(Cl)c(Cl)c1=O ?
inactive

Record: Cn1c2ccccc2c2c(-c3ccccc3)[n+]3ccccc3nc21
inactive

Also check Cc1cc2[nH]c3c(C#N)c4c(c(=O)n3c2cc1C)CCCC4
inactive

Another compound to check: CCOC(=O)CCC(NC(=O)c1ccc(OCc2ccc3nc(OC)c(OC)nc3c2)cc1)C(=O)OCC (stereo not given)
inactive

O=C1[C@@H]2C(c3ccccc3Br)=NO[C@@H]2C(=O)N1c1ccc(Cc2ccc(N3C(=O)[C@H]4C(c5ccccc5Br)=NO[C@H]4C3=O)cc2)cc1 , same question.
inactive

Repeat with Cc1cn([C@@H]2O[C@H](CO)[C@@H](O)[C@@H]2O)c(=O)[nH]c1=O
inactive

Proceed to CC(=O)OC1CC2CCN3C(=O)c4cc5c(cc4[C@H](C1OC(C)=O)C23)OCO5 (stereo not given in full)
inactive
